Tested on: HSV2
assay: Viral qPCR assay, HSV2 in MRC5 cells
Format: cell-based, Herpes Simplex Virus type 2
setup-conditions: Human alphaherpesvirus 2, MRC5, 72 h, read-out: HSV2 MRC5 Cell (EC50)
Attribute: pEC50
# reply with the number alone; pEC50 is -log10 of concentration in mol/L

Reference set (10 entries):
Cn1nc(C(=O)NCc2ccc(Cl)cc2)c2c1CN(C[C@@H]1CCC(=O)N1)C2 [Compound 47] : 6.21
CCOc1cnc(-n2nc(C(=O)NCc3ccc(Cl)cc3)c3c2CN(C[C@H]2CCC(=O)N2)C3)nc1 [Compound 16] : 7.13
O=C1CC[C@H](CN2Cc3c(C(=O)NCc4ccc(Cl)cc4)nn(-c4ncc5ccccc5n4)c3C2)N1 [Compound 18] : 6.97
Cc1cn(C)c(-n2nc(C(=O)NCc3ccc(Cl)cc3)c3c2CN(C[C@H]2CCC(=O)N2)C3)n1 [Compound 19] : 6.48
Cn1ccnc1-n1nc(C(=O)NCc2ccc(Cl)cc2)c2c1CN(C[C@H]1CCC(=O)N1)C2 [Compound 20] : 6.84
CC(C)C(=O)NCCn1nc(C(=O)NCc2ccc(Cl)cc2)c2c1CN(C[C@H]1CCC(=O)N1)C2 [Compound 25] : 4.79
O=C1CC[C@H](CN2Cc3c(C(=O)NCc4ccc(Cl)cc4)nn(-c4ncco4)c3C2)N1 [Compound 23] : 6.87
Cn1nc(C(=O)NCc2ccc(Cl)cc2)c2c1CN(C[C@@H]1CC(F)C(=O)N1)C2 (stereo partly shown) [Compound 79] : 6.03
O=C1N[C@@H](CN2Cc3c(C(=O)NCc4ccc(Cl)cc4)nn(C(F)F)c3C2)CO1 [Compound 99] : 7.36
O=C1CC[C@@H](CN2Cc3c(C(=O)NCc4ccc(Cl)cc4)nn(-c4nccs4)c3C2)N1 [Compound 42] : 5.96

Query: For HSV2, provide pEC50 of Cn1nc(C(=O)NCc2ccc(Cl)cc2)c2c1CN(C[C@H]1CC(F)C(=O)N1)C2 (stereo partly shown) [Compound 78] please.
Result: 5.65

Query: Query Cn1nc(C(=O)NCc2ccc(Cl)cc2)c2c1CN(C[C@@H]1CC(F)(F)C(=O)N1)C2 [Compound 82] next
Result: 5.99

Query: Query O=C1CC[C@H](CN2Cc3c(C(=O)NCc4ccc(Cl)cc4)nn(-c4ccccn4)c3C2)N1 [Compound 13] next
Result: 7.13
